- System: actinokinase
- method-notes: Effects of inhibitors and metal ions on activity of the purified enzyme
- Assay type: biochemical, Streptomyces megasporus SD5
- measurement-conditions: inhibitor 1 mM, purified enzyme, universal protease substrate, 55° C.
value-kind: effect of inhibitor on enzymatic activity

Prompt: Give effect of inhibitor on enzymatic activity for `c1cnc2c(c1)ccc1cccnc12`
Response: No change in activity

Prompt: Give effect of inhibitor on enzymatic activity for `CC(C)C[C@H](NP(=O)(O)O[C@@H]1O[C@@H](C)[C@H](O)[C@@H](O)[C@H]1O)C(=O)N[C@@H](Cc1c[nH]c2ccccc12)C(=O)O`
Response: No change in activity

Prompt: Give effect of inhibitor on enzymatic activity for `CC(C)C[C@H](NC(=O)[C@H]1O[C@@H]1C(=O)O)C(=O)NCCCCN=C(N)N`
Response: Insignificant inhibition

Prompt: Give effect of inhibitor on enzymatic activity for `OCCS`
Response: Insignificant inhibition

---

- System: actinokinase
- method-notes: Effects of inhibitors and metal ions on activity of the purified enzyme
- Assay type: biochemical, Streptomyces megasporus SD5
- measurement-conditions: inhibitor 1 mM, purified enzyme, universal protease substrate, 55° C.
value-kind: effect of inhibitor on enzymatic activity

Worked cases, effect of inhibitor on enzymatic activity given:
Prompt: Report value only: effect of inhibitor on enzymatic activity, actinokinase, CC(=O)N[C@@H](CC(C)C)C(=O)N[C@@H](CC(C)C)C(=O)N[C@H](C=O)CCCNC(=N)N [Leupeptin]
Response: moderately sensitive

Prompt: Report value only: effect of inhibitor on enzymatic activity, actinokinase, Cc1ccc(S(=O)(=O)N[C@@H](Cc2ccccc2)C(=O)CCl)cc1 [TPCK]
Response: moderately sensitive

Prompt: Report value only: effect of inhibitor on enzymatic activity, actinokinase, CC(C)C[C@H](NC(=O)[C@@H](O)[C@H](N)Cc1ccccc1)C(=O)O [Bestatin]
Response: highly repressed

Prompt: Report value only: effect of inhibitor on enzymatic activity, actinokinase, O=S(=O)(F)Cc1ccccc1 [PMSF]
Response: highly repressed

Prompt: Report value only: effect of inhibitor on enzymatic activity, actinokinase, Cl.NCCc1ccc(S(=O)(=O)F)cc1 [Pefabloc, pefabloc]
Response: highly repressed

Proceed to the following item.
Prompt: Report value only: effect of inhibitor on enzymatic activity, actinokinase, CC(C)C[C@H](NC(=O)[C@@H](NC(=O)N[C@@H](Cc1ccccc1)C(=O)O)[C@@H]1CCN=C(N)N1)C(=O)N[C@H](C=O)Cc1ccccc1 [Chymostatin]
Response: highly repressed

---

- System: fibrinolytic enzyme produced by S. megasporus SD5
- method-notes: Effect of protease inhibitors on fibrinolytic activity of the crude enzyme (FIG. 5)
- Assay type: biochemical, Streptomyces megasporus SD5
- measurement-conditions: crude enzyme, FIG. 5
value-kind: effect of inhibitor on fibrinolytic activity of the enzyme

Worked cases, effect of inhibitor on fibrinolytic activity of the enzyme given:
Prompt: Give effect of inhibitor on fibrinolytic activity of the enzyme for `O=S(=O)(F)Cc1ccccc1`
Response: strongly repressed

Prompt: Give effect of inhibitor on fibrinolytic activity of the enzyme for `CC(C)C[C@H](NP(=O)(O)O[C@@H]1O[C@@H](C)[C@H](O)[C@@H](O)[C@H]1O)C(=O)N[C@@H](Cc1c[nH]c2ccccc12)C(=O)O`
Response: No change

Prompt: Give effect of inhibitor on fibrinolytic activity of the enzyme for `Cl.NCCc1ccc(S(=O)(=O)F)cc1`
Response: strongly repressed

Prompt: Give effect of inhibitor on fibrinolytic activity of the enzyme for `CC(C)C[C@H](NC(=O)[C@@H](NC(=O)N[C@@H](Cc1ccccc1)C(=O)O)[C@@H]1CCN=C(N)N1)C(=O)N[C@H](C=O)Cc1ccccc1`
Response: strongly repressed

Others:
Prompt: Give effect of inhibitor on fibrinolytic activity of the enzyme for `c1cnc2c(c1)ccc1cccnc12`
Response: No change

Prompt: Give effect of inhibitor on fibrinolytic activity of the enzyme for `Cc1ccc(S(=O)(=O)N[C@@H](Cc2ccccc2)C(=O)CCl)cc1`
Response: moderately sensitive

Prompt: Give effect of inhibitor on fibrinolytic activity of the enzyme for `CC(C)C[C@H](NC(=O)[C@@H](O)[C@H](N)Cc1ccccc1)C(=O)O`
Response: strongly repressed

Prompt: Give effect of inhibitor on fibrinolytic activity of the enzyme for `CC(=O)N[C@@H](CC(C)C)C(=O)N[C@@H](CC(C)C)C(=O)N[C@H](C=O)CCCNC(=N)N`
Response: moderately sensitive

Reference for the values: patent US20030170221A1
